Assign EC50 to each entry below.
# STUDY_SYSTEM: UniProt O14842
# Sequence (O14842 whole entry): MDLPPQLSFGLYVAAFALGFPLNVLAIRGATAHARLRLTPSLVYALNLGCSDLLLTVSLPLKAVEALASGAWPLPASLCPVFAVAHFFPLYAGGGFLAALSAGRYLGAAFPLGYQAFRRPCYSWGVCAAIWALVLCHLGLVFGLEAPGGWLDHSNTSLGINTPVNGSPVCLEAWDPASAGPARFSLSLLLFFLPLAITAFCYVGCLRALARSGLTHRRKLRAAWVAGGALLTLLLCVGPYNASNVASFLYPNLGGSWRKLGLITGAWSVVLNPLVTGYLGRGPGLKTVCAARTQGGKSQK
# METHOD_NOTES: IP1 accumulation measurements using the IPOne assay system (1321N1 cells stably expressing human GPR40 receptor)
# PROTOCOL_CONDITIONS: 1321N1 cells expressing human GPR40, 1 h stimulation at 37° C.
# Protocol: IP1 accumulation measurements using the IPOne assay system—1321N1 cells stably expressing human GPR40 receptor (Euroscreen, Belgium) are seeded 24 h before the assay in white 384-well plates in culture medium containing 10% FCS, 1% Na-Pyruvate and 400 μg/mL G418. IP1 is assayed according to the manufacturer's description (Cisbio Bioassays, France). […] After an incubation time of 1 h at room temperature plates are measured using an EnVision™, Perkin Elmer. […]
Give the value in nM but do not write nM after it.

Data request: Looking for the measured EC50 of CCc1cccc(CC)c1-c1ccc(F)c2c1CC[C@H]2Nc1ccc([C@H]2C[C@@H]2C(=O)O)cn1 [Example 23] , can you help?
Data returned: 5

Data request: Record: Cc1cc(C(=O)N(C)C)cc(C)c1-c1cccc2c1CC[C@H]2Nc1ccc([C@H]2C[C@@H]2C(=O)O)cn1 [Example 86]
Data returned: 174

Data request: Record: Cc1cc(-c2nnn(C)n2)cc(C)c1-c1cccc2c1CC[C@H]2Nc1ccc([C@H]2C[C@@H]2C(=O)O)cn1 [Example 1]
Data returned: 7

Data request: Record: Cc1cc(-c2cc(=O)n(C)cn2)cc(C)c1-c1cccc2c1CC[C@H]2Nc1ccc([C@H]2C[C@@H]2C(=O)O)cn1 [Example 83]
Data returned: 8

Data request: Record: Cc1cc(OCC(C)(C)C#N)cc(C)c1-c1ccc(F)c2c1CC[C@H]2Nc1ccc([C@H]2C[C@@H]2C(=O)O)cn1 [Example 35]
Data returned: 23

Data request: Record: Cc1cccc(C)c1-c1ccc(F)c2c1CC[C@H]2Nc1ccc([C@H]2C[C@@H]2C(=O)O)cn1 [Example 17]
Data returned: 13

Data request: Record: Cc1cc(OCC(=O)O)cc(C)c1-c1ccc(F)c2c1CC[C@H]2Nc1ccc([C@H]2C[C@@H]2C(=O)O)cn1 [Example 34]
Data returned: 4130

The measurements presented in this section are drawn from patent US9617251B2.
